Recorded measurements of growth AUC normalised to DMSO control, one per entry
- Tested on: P. vulgatus RND KO
- procedure-details: growth AUC normalised to DMSO control (median) (fraction of control); higher = less growth inhibition, active = hit call of the paper
- assay-conditions: 20 µM
Counter-ions that a name gives are not always drawn.

molecule="NS(=O)(=O)c1cc2c(cc1Cl)NCNS2(=O)=O [Hydrochlorothiazide]" tested_target="P. vulgatus RND KO" measured_property="growth AUC normalised to DMSO control" experimental_result="0.981 (inactive)"
molecule=CN(c1nccc(=O)[nH]1)C1CCN(c2nc3ccccc3n2Cc2ccc(F)cc2)CC1 tested_target="P. vulgatus RND KO" measured_property="growth AUC normalised to DMSO control" experimental_result="0.929 (inactive)"
molecule="CN(C)CCc1c[nH]c2ccc(Cn3cncn3)cc12 [Rizatriptan benzoate]" tested_target="P. vulgatus RND KO" measured_property="growth AUC normalised to DMSO control" experimental_result="1.02 (inactive)"
molecule="CO/N=C(\\C(=O)N[C@@H]1C(=O)N2C(C(=O)O)=C(COC(N)=O)CS[C@H]12)c1ccco1 [Cefuroxime sodium salt]" tested_target="P. vulgatus RND KO" measured_property="growth AUC normalised to DMSO control" experimental_result="0.011 (active)"

q: Returns the measured growth AUC normalised to DMSO control for the input molecule. Input: CN1CC2c3ccccc3Oc3ccc(Cl)cc3C2C1 (configuration not stated) [Asenapine maleate]
a: 0.939 (inactive)

q: Okay, and CN(C)[C@@H]1C(=O)C(C(N)=O)=C(O)[C@@]2(O)C(=O)C3=C(O)c4c(O)ccc(Cl)c4[C@@H](O)[C@H]3C[C@@H]12 [Demeclocycline hydrochloride] ?
a: 0.015 (active)

q: Okay, and CC(=O)[C@@]1(O)CC[C@H]2[C@@H]3C[C@H](C)C4=CC(=O)C=C[C@]4(C)[C@@]3(F)[C@@H](O)C[C@@]21C ?
a: 1 (inactive)

---

- System: Shigella flexneri
- procedure-details: growth AUC normalised to DMSO control (fraction of control); higher = less growth inhibition, active = hit call of the paper
- assay-conditions: 20 µM
Counter-ions that a name gives are not always drawn.
Recorded measurements of growth AUC normalised to DMSO control, one per entry
Reply with the value as a number alone.

Answered examples (5):
compound="CCN(CC)CC(=O)Nc1c(C)cccc1C [Lidocaine hydrochloride]" tested_target="Shigella flexneri" experimental_result=1.02
compound="COc1ccccc1N1CCN(CC(O)COc2cccc3ccccc23)CC1 (stereo unspecified) [Naftopidil dihydrochloride]" tested_target="Shigella flexneri" experimental_result=1
compound=O=C(O)c1cccnc1Nc1cccc(C(F)(F)F)c1 tested_target="Shigella flexneri" experimental_result=0.998
compound="CCCCCN(C)CCC(O)(P(=O)(O)O)P(=O)(O)O [Ibandronate sodium]" tested_target="Shigella flexneri" experimental_result=0.98
compound="NS(=O)(=O)c1cc(C(=O)O)c(NCc2ccco2)cc1Cl [Furosemide]" tested_target="Shigella flexneri" experimental_result=1.01

Now look at this one.
q: Returns the measured growth AUC normalised to DMSO control for the input compound. Input: CCOC(=O)C1=C(C)NC(C)=C(C(=O)OC)C1c1cccc([N+](=O)[O-])c1 (stereo unspecified)
a: 1

---

- Tested on: Shigella flexneri
- procedure-details: growth AUC normalised to DMSO control (fraction of control); higher = less growth inhibition, active = hit call of the paper
- assay-conditions: 20 µM
Counter-ions that a name gives are not always drawn.
Answer with one of the outcomes active, inactive

compound="CN(C)CC/C=C1/c2ccccc2COc2ccc(CC(=O)O)cc21 [Olopatadine hydrochloride]" qualitative_label=inactive
compound=CC[C@H]1OC(=O)[C@H](C)[C@@H](O[C@H]2C[C@@](C)(OC)[C@@H](O)[C@H](C)O2)[C@H](C)[C@@H](O[C@@H]2O[C@H](C)C[C@H](N(C)C)[C@H]2O)[C@](C)(O)C[C@@H](C)C(=O)[C@H](C)[C@@H](O)[C@]1(C)O qualitative_label=active
compound="COc1cc(C(=O)NCc2ccc(OCCN(C)C)cc2)cc(OC)c1OC [Trimethobenzamide hydrochloride]" qualitative_label=inactive
compound="CCCCOc1cc(C(=O)OCCN(CC)CC)ccc1N [Benoxinate hydrochloride]" qualitative_label=inactive
compound="CCN1CCCC(OC(=O)C(c2ccccc2)c2ccccc2)C1 (configuration not stated) [Piperidolate hydrochloride]" qualitative_label=inactive

q: Please share the test call associated with CC1CS(=O)(=O)CCN1/N=C/c1ccc([N+](=O)[O-])o1 (configuration not stated) .
a: inactive

q: Okay, and C[C@H]1C[C@H]2[C@@H]3CCC4=CC(=O)C=C[C@]4(C)[C@@]3(F)[C@@H](O)C[C@]2(C)[C@@]1(O)C(=O)CO ?
a: inactive

q: Okay, and Nc1ccc(S(=O)(=O)c2ccc(N)cc2)cc1 ?
a: inactive

q: Okay, and CO/N=C(\C(=O)N[C@@H]1C(=O)N2C(C(=O)O)=C(C[N+]3(C)CCCC3)CS[C@H]12)c1csc(N)n1 [Cefepime hydrochloride] ?
a: active

q: Okay, and CC(C)NCC(O)c1cc(O)cc(O)c1 (configuration not stated) [Metaproterenol sulfate] ?
a: inactive

q: Okay, and c1cnc(N2CCN(Cc3ccc4c(c3)OCO4)CC2)nc1 ?
a: inactive

q: Okay, and CN1Cc2c(N)cccc2C(c2ccccc2)C1 (configuration not stated) [Nomifensine maleate] ?
a: inactive

q: Okay, and CC(N/C(=N\C#N)Nc1ccncc1)C(C)(C)C (configuration not stated) [Pinacidil monohydrate] ?
a: inactive

q: Okay, and COCC(=O)Nc1c(I)c(C(=O)NCC(O)CO)c(I)c(C(=O)N(C)CC(O)CO)c1I (configuration not stated) [Iopromide] ?
a: inactive

q: Okay, and CC1(C)S[C@@H]2[C@H](NC(=O)[C@H](N)c3ccc(O)cc3)C(=O)N2[C@H]1C(=O)O ?
a: active

q: Okay, and CN(C)C(=O)C(CCN1CCC(O)(c2ccc(Cl)cc2)CC1)(c1ccccc1)c1ccccc1 [Loperamide hydrochloride] ?
a: inactive

q: Okay, and CC(=O)N[C@@H](CC(C)C)C(=O)O ?
a: inactive

---

- System: Yersinia pseudotuberculosis
- procedure-details: growth AUC normalised to DMSO control (fraction of control); higher = less growth inhibition, active = hit call of the paper
- assay-conditions: 20 µM
Where a name gives a salt, the structure may show the parent alone.
Recorded measurements of growth AUC normalised to DMSO control, one per entry
Reply with the value as a number alone.

Answered examples (8):
molecule="CC1(C)NC(=O)N(c2ccc([N+](=O)[O-])c(C(F)(F)F)c2)C1=O [Nilutamide]" tested_target="Yersinia pseudotuberculosis" measured_property="growth AUC normalised to DMSO control" experimental_result=1
molecule="CC(C)NCC(O)COc1ccc(CCOCC2CC2)cc1 (centres undefined) [Betaxolol hydrochloride]" tested_target="Yersinia pseudotuberculosis" measured_property="growth AUC normalised to DMSO control" experimental_result=1
molecule="CC(C)N1CCN(c2ccc(OCC3COC(Cn4cncn4)(c4ccc(Cl)cc4Cl)O3)cc2)CC1 (centres undefined)" tested_target="Yersinia pseudotuberculosis" measured_property="growth AUC normalised to DMSO control" experimental_result=0.989
molecule="Nc1c2c(nc3ccccc13)CCCC2 [Tacrine hydrochloride]" tested_target="Yersinia pseudotuberculosis" measured_property="growth AUC normalised to DMSO control" experimental_result=0.98
molecule="CC(=O)O[C@]1(C(C)=O)CC[C@H]2[C@@H]3C=C(Cl)C4=CC(=O)[C@@H]5C[C@@H]5[C@]4(C)[C@H]3CC[C@@]21C [Cyproterone acetate]" tested_target="Yersinia pseudotuberculosis" measured_property="growth AUC normalised to DMSO control" experimental_result=0.994
molecule="CC(=O)N(CC(O)CO)c1c(I)c(C(=O)NCC(O)CO)c(I)c(C(=O)NCC(O)CO)c1I (centres undefined) [Iohexol]" tested_target="Yersinia pseudotuberculosis" measured_property="growth AUC normalised to DMSO control" experimental_result=1
molecule=C[C@]12CC[C@@H]3c4ccc(O)cc4CC[C@H]3[C@@H]1C[C@@H](O)[C@@H]2O tested_target="Yersinia pseudotuberculosis" measured_property="growth AUC normalised to DMSO control" experimental_result=1.01
molecule=CCCCC[C@H](O)/C=C/[C@H]1[C@H](O)CC(=O)[C@@H]1CCCCCCC(=O)O tested_target="Yersinia pseudotuberculosis" measured_property="growth AUC normalised to DMSO control" experimental_result=0.999

Now look at this one.
q: Returns the measured growth AUC normalised to DMSO control for the input molecule. Input: NC[C@H]1O[C@H](O[C@H]2[C@H](O[C@@H]3O[C@H](CO)[C@@H](O)[C@H]3O)[C@@H](O)[C@H](N)C[C@@H]2N)[C@H](N)[C@@H](O)[C@@H]1O [Ribostamycin sulfate salt]
a: 0.995

---

- System: S. enterica typhimurium WT
- procedure-details: growth AUC normalised to DMSO control (median) (fraction of control); higher = less growth inhibition, active = hit call of the paper
- assay-conditions: 20 µM
Where a name gives a salt, the structure may show the parent alone.
measured-property: growth AUC normalised to DMSO control
Reply with the value as a number alone.

Answered examples (2):
compound="CCOC(=O)[C@H](CCc1ccccc1)N[C@H]1CS[C@H](c2cccs2)CN(CC(=O)O)C1=O [Temocapril hydrochloride]" experimental_result=1
compound="CN(C)CCC=C1c2ccccc2C=Cc2ccccc21 [Cyclobenzaprine hydrochloride]" experimental_result=1

q: Returns the measured growth AUC normalised to DMSO control for the input compound. Input: O=C(NC(Cc1cc(=O)[nH]c2ccccc12)C(=O)O)c1ccc(Cl)cc1 (stereo not given) [Rebamipide]
a: 0.99

q: Okay, and COc1cc2nc(N(C)CCCNC(=O)C3CCCO3)nc(N)c2cc1OC (stereo not given) [Alfuzosin hydrochloride] ?
a: 1.01

q: Okay, and O=S(=O)(c1cccc2cnccc12)N1CCCNCC1 [Fasudil Hydrochloride] ?
a: 1

q: Okay, and CCN(CC)C(=S)SSC(=S)N(CC)CC ?
a: 0.995

q: Okay, and CCN(CC)C(C)CN1c2ccccc2Sc2ccccc21 (stereo not given) [Ethopropazine hydrochloride] ?
a: 0.993

q: Okay, and CN1c2cc(O)c(N=NC(N)=O)cc2CC1S(=O)(=O)O (stereo not given) [Carbazochrome sodium sulfonate] ?
a: 1

q: Okay, and CC(c1cc2ccccc2s1)N(O)C(N)=O (stereo not given) ?
a: 1
